# Tyrosinase Activation per entry
Tested on: tyrosinase activity in B16 melanoma cells
Test: Tyrosinase activity in B16 melanoma cells (lysate, L-dopa to dopachrome, absorbance 475 nm)
Assay type: cell-based
Conditions: sample conc. 1 μg/ml; B16 cells treated for 3 days; untreated control = 100
Lab book: enter the figure in %, no units written.

See these solved cases before continuing.
CC(=O)OC1CC(C)CC(C)(C)C1 (stereo not shown) [Mintonat, Homomenthyl acetate] : 80
CCCCCc1cc(O)c(C/C=C(\C)CCC=C(C)C)c(O)c1 [(−) CBG] : 55
CCCCCCCCCCCC=O [Aldehyde C12] : 82

[ask] Can you look up the measured Tyrosinase Activation of C=CCOC(=O)COc1ccccc1 [Allyl phenoxyacetate] for me?
[reply] 62
